cond: in methanol, 303.15 K
assay metric: solubility (mole fraction)

Would you kindly share the measured solubility (mole fraction) for CN(CCOc1ccc(CC2SC(=O)NC2=O)cc1)c1ccccn1 (stereo unspecified) ? 0.000444

====

cond: in ethyl acetate, 283.15 K
assay metric: solubility (mole fraction)

Recorded solubility (mole fraction) of CN(CCOc1ccc(CC2SC(=O)NC2=O)cc1)c1ccccn1 (stereo unspecified) , please. 0.00123

====

cond: in isopropanol, 323.15 K
assay metric: solubility (mole fraction)

Returns the measured solubility (mole fraction) for the input compound. Input: CN(CCOc1ccc(CC2SC(=O)NC2=O)cc1)c1ccccn1 (stereo unspecified) 0.000992

====

cond: in methyl acetate, 303.15 K
assay metric: solubility (mole fraction)
Enter a number only.

So what's the measured solubility (mole fraction) for this one? CN(CCOc1ccc(CC2SC(=O)NC2=O)cc1)c1ccccn1 (stereo unspecified) 0.00335
